Please respond with reported pIC50 for every item in the list.
# Test target: PD-L1 His protein / PD-1 Fc protein (Homo sapiens (Human))
# Method notes: HTRF Assay (PD-1/PD-L1 interaction)
# Assay type: binding
# Details: PD-L1 His 6 nM, PD-1 Fc 6 nM
Give bare numbers, as −log10 of the molar value.

Answered examples (5):
COc1nc(-c2cccc(-c3ccnc(-c4ccc(CNC5CCN(C(C)=O)CC5)c(F)c4)c3Cl)c2Cl)ccc1CNC1CCN(C(C)=O)CC1 = 8.81
COc1cc(-c2nccc(-c3cccc(-c4ccc(CNC5CCN(C(C)=O)CC5)c(OC)n4)c3Cl)c2Cl)ccc1CNC1CCN(S(C)(=O)=O)CC1 = 9.00
COc1cc(-c2nccc(-c3cccc(-c4ccc(CNC[C@H](C)O)c(OC)n4)c3Cl)c2Cl)ccc1CNC[C@H](C)O = 9.24
COc1cc(-c2nccc(-c3cccc(-c4ccc(CN5CC6(CNC(=O)C6)C5)c(OC)n4)c3C)c2C)ccc1CN1CC2(CNC(=O)C2)C1 = 9.60
COc1cc(-c2nccc(-c3cccc4c3CC[C@@H]4Oc3nc(OC)c(CNC[C@@H]4CCC(=O)N4)cc3C(F)(F)F)c2Cl)ccc1CNC[C@@H]1CCC(=O)N1 = 7.90

Batch of 7 compounds: report pIC50 for each.
1. COc1nc(-c2cccc(-c3ccnc(-c4ccc(CNC5CCOCC5)c(OC)n4)c3Cl)c2Cl)ccc1CNC1CCOCC1
2. COc1cc(-c2cccc(-c3ccnc(-c4cnc(CNC5CCN(C(C)=O)CC5)c(OC)c4)c3Cl)c2Cl)ccc1CNC1CCN(C(C)=O)CC1
3. COc1cc(-c2nccc(-c3cccc(-c4ccc(CNC5CCN(C(C)=O)CC5)c(OC)n4)c3Cl)c2Cl)ccc1CN(C)C1CCOCC1
4. COc1cc(-c2nccc(-c3cccc(-c4ccc5c(CNC6CCOCC6)cn(C)c5n4)c3Cl)c2Cl)ccc1CNC1CCOCC1
5. COc1cc(-c2nccc(-c3cccc(-c4ccc(CN(C)CC5CN(C(C)=O)C5)c(OC)n4)c3Cl)c2Cl)ccc1CN(C)CC1CN(C(C)=O)C1
6. COc1nc(-c2cccc(-c3ccnc(-c4ccc5c(c4)N(C)CCN(C[C@H](C)O)C5)c3Cl)c2Cl)ccc1CNC[C@@H]1CCC(=O)N1
7. COc1cc(-c2nccc(-c3cccc(-c4ccc(CNC5CCN(C(C)=O)CC5)c(OC)n4)c3Cl)c2Cl)cc2c1CN(C1CCN(CC(=O)O)C1=O)CC2 (stereo not drawn)

[9.18, 8.71, 8.06, 8.39, 8.68, 9.10, 8.41]

###

# Test target: human PD-L1 (Homo sapiens (Human), UniProt Q9NZQ7)
# Sequence (Q9NZQ7 19-290): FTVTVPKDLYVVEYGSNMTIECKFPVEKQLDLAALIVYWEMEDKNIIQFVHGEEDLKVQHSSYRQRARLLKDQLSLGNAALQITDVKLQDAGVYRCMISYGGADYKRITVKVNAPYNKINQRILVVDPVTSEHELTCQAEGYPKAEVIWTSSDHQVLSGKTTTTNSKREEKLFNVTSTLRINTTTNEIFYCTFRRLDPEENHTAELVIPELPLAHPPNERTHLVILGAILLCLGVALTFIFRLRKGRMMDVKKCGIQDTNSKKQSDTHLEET
# Method notes: T cell activation luciferase reporter cell culture system (T Cell Activation Assay)
# Assay type: cell-based
# Details: luciferase reporter assay; PD-L1 aAPC/CHO-K1 cells with PD-1 effector Jurkat T cells
Record form. Attribute: pEC50. Fill in for each entry.
One number for each entry, as −log10 of the molar value.

COCCC(=O)N1CCC(NCc2ccc(-c3cccc(-c4ccnc(-c5ccc(CNC[C@H](C)O)c(OC)c5)c4Cl)c3Cl)nc2OC)CC1 = 7.39
COc1cc(-c2nccc(-c3cccc(-c4ccc(CN5CC6(CNC(=O)C6)C5)c(OC)n4)c3Cl)c2C)ccc1CN1CC2(CNC(=O)C2)C1 = 7.43

Field request: pEC50 | item: "COc1cc(-c2nccc(-c3cccc(-c4ccc(CNCCC(=O)O)c(OC)n4)c3Cl)c2Cl)ccc1CNC1CCN(C(C)=O)CC1" 7.45

###

# Test target: human PD-L1 (Homo sapiens (Human))
# Method notes: T cell activation luciferase reporter cell culture system (T Cell Activation Assay)
# Type: cell-based
# Details: luciferase reporter assay; PD-L1 aAPC/CHO-K1 cells with PD-1 effector Jurkat T cells
Give measured EC50 for each item. Keep answers brief.
One number for each entry, in nM.

COc1cc(-c2nccc(-c3cccc(-c4ccc(CN5CC6(CNC(=O)C6)C5)c(OC)n4)c3C)c2C)ccc1CN1CC2(CNC(=O)C2)C1 [Example 415] = 5100

Please state EC50 for every compound in the list that follows.
1. COc1nc(-c2cccc(-c3ccnc(-c4cc(OC)c5nc(CN6CC7(COC7)C6)nn5c4)c3Cl)c2Cl)ccc1CNC1CCN(C(C)=O)CC1 [Example 698]
2. COc1nc(-c2ccnc(-c3cccc4c3CC[C@@H]4Nc3nc(OC)c(CNC[C@@H]4CCC(=O)N4)cc3C(F)(F)F)c2Cl)ccc1CNC1CCOCC1 [Example 666]
3. COc1nc(-c2cccc(-c3ccnc(-c4ccc(CNC5CCN(C(C)=O)CC5)c(OC(F)F)c4)c3Cl)c2Cl)ccc1CN1CC2(CNC(=O)C2)C1 [Example 665]
4. CNCc1cn(C)c2cc(-c3nccc(-c4cccc(-c5ccc(CNC[C@@H]6CCC(=O)N6)c(OC)n5)c4Cl)c3Cl)ccc12 [Compound 31]

1: 261; 2: 114; 3: 46.3; 4: 134

###

# Test target: human PD-L1 (Homo sapiens (Human))
# Method notes: T cell activation luciferase reporter cell culture system (T Cell Activation Assay)
# Assay type: cell-based
# Details: luciferase reporter assay; PD-L1 aAPC/CHO-K1 cells with PD-1 effector Jurkat T cells
Define the label as Satisfied when EC50 is strictly less than 80 nM and as Not satisfied in all remaining cases.

COc1cc(-c2nccc(-c3cccc(NC(=O)c4ccc(CNC5CCOCC5)cn4)c3C)c2Cl)ccc1CNC1CCOCC1 = Not satisfied
COc1cc(-c2nccc(-c3cccc(-c4ccc(CN5CCC(NC(C)=O)CC5)c(OC)n4)c3Cl)c2Cl)ccc1CN1CCC(NC(C)=O)CC1 = Satisfied

Record "COc1cc(-c2nccc(-c3cccc(-c4ccc(CNC5CCN(C(C)=O)CC5)c(OC)n4)c3Cl)c2Cl)ccc1CNC1CC(C)(C)C1" : is its EC50 strictly below 80 nM? Satisfied

Continue with "COCCC(=O)N1CCC(NCc2ccc(-c3nccc(-c4cccc(-c5ccc(CNC6CCN(C(=O)CCOC)CC6)c(OC)n5)c4Cl)c3Cl)cc2OC)CC1" Satisfied

Also need "COc1cc(-c2nccc(-c3cccc(-c4ccc(CN5CC6(CNC(=O)C6)C5)c(OC)n4)c3Cl)c2Cl)ccc1CN1CC2(CNC(=O)C2)C1" , thanks. Satisfied

###

# Test target: PD-L1 His protein / PD-1 Fc protein (Homo sapiens (Human))
# Method notes: HTRF Assay (PD-1/PD-L1 interaction)
# Type: binding
# Details: PD-L1 His 6 nM, PD-1 Fc 6 nM
Answer each item with its documented IC50.
Numbers only, in nM.

Worked set:
COc1cc(-c2nccc(-c3cccc(-c4ccc5c(CN(C)C6CCN(C(C)=O)CC6)cn(C)c5n4)c3Cl)c2Cl)ccc1CN1CC2(C1)CN(C(C)=O)C2 [Compound 601] = 0.23
COc1cc(-c2nccc(-c3cccc(NC(=O)c4ccc(CNCCO)cn4)c3C)c2Cl)ccc1CNC[C@@H]1CCC(=O)N1 [Example 735] = 0.03
COCC(=O)N1CC2(CN(Cc3ccc(-c4cccc(-c5ccnc(-c6ccc(CN7CC8(CNC(=O)C8)C7)c(OC)c6)c5Cl)c4Cl)nc3OC)C2)C1 [Example 687] = 0.08
COc1cc(-c2cncc(-c3cccc(-c4ccc(CN5CC6(CNC(=O)C6)C5)c(OC)n4)c3Cl)c2Cl)ccc1CN1CC2(CNC(=O)C2)C1 [Compound 642] = 0.19

Go through the items and report each one's IC50.
1. COc1nc(-c2cccc(-c3ccnc(-c4ccc(CN5CC6(CNC(=O)C6)C5)c(OC)n4)c3Cl)c2Cl)ccc1CN1CC2(CNC(=O)C2)C1 [Compound 628]
2. COc1nc(-c2cccc(-c3ccnc(-c4ccc5c(c4)CCCC5NC[C@@H]4CCC(=O)N4)c3Cl)c2Cl)ccc1CNC[C@@H]1CCC(=O)N1 (mixture of isomers) [Compound 112]
3. COc1cc(-c2nccc(-c3nccc(-c4ccc(CN5CC6(CNC(=O)C6)C5)c(OC)n4)c3Cl)c2Cl)ccc1CN1CC2(CNC(=O)C2)C1 [Example 669]

0.28
1
0.34

Please give IC50 for each item listed below.
1. COc1cc(-c2nccc(-c3cccc(-c4ccc(CN5CC6(CNC(=O)C6)C5)c(OC)n4)c3Cl)c2Cl)cc2c1CN(CC1(C(=O)O)CC1)CC2 [Example 297]
2. COc1nc(-c2cccc(-c3ccnc(-c4ccc5c(CNC6CCN(C(C)=O)CC6)nn(C)c5c4)c3Cl)c2Cl)ccc1CNC1CCN(C(C)=O)CC1 [Example 263]
3. COCCNCc1cn(C)c2cc(-c3nccc(-c4cccc(-c5ccc(CNC[C@@H]6CCC(=O)N6)c(OC)n5)c4Cl)c3Cl)ccc12 [Compound 30]
4. COc1cc(-c2nccc(-c3cccc(NC(=O)c4ccc(CNCCO)cn4)c3Cl)c2Cl)ccc1CNC1CCOCC1 [Example 768]

1. 0.29
2. 1.71
3. 15.4
4. 0.1

Below are some compounds; for each one, tell me its IC50.
1. COc1cc(-c2nccc(-c3cccc(NC(=O)c4ccc(CNC[C@@H]5CCC(=O)N5)cn4)c3C)c2Cl)cc(F)c1CNC[C@@H]1CCC(=O)N1 [Example 726]
2. CNCc1ccc(-c2cccc(-c3ccnc(-c4ccc(CNC[C@@H](O)CC(=O)OC(C)C)c(OC)c4)c3Cl)c2Cl)nc1OC [Example 280]
3. COc1nc(-c2cccc(-c3cncc(-c4ccc(CN5CC6(CNC(=O)C6)C5)c(OC)n4)c3Cl)c2Cl)ccc1CN1CC2(CNC(=O)C2)C1 [Compound 640]
4. CNCc1cn(C)c2cc(-c3nccc(-c4cccc(-c5ccc(CNC[C@@H]6CCC(=O)N6)c(OC)n5)c4Cl)c3Cl)ccc12 [Compound 31]

[0.42, 28.7, 0.22, 0.3]

Provide the reported IC50 of each entry below, same order.
1. COc1nc(-c2cccc(-c3ccnc(-c4cc5c(=O)n(C)c(CN6CC(C)(O)C6)nn5c4)c3Cl)c2Cl)ccc1CN1CC(C)(O)C1 [Example 231]
2. CCNCc1cn(C)c2cc(-c3nccc(-c4cccc(-c5ccc(CNC[C@@H]6CCC(=O)N6)c(OC)n5)c4Cl)c3Cl)ccc12 [Compound 32]
3. COc1cc(-c2ncnc(-c3cccc(-c4ccc(CNC[C@@H]5CCC(=O)N5)c(OC)n4)c3Cl)c2OC)ccc1CNC[C@@H]1CCC(=O)N1 [Example 716]
4. COc1cc(-c2nccc(-c3cccc(-c4ccc(CNCC(=O)O)c(OC)n4)c3Cl)c2Cl)cc2c1CN(C[C@H](C)O)CC2 [Compound 229]
5. COc1nc(-c2cccc(-c3ccnc(-c4ccc5c6c(n(C)c5c4)CCNC6)c3Cl)c2Cl)ccc1CNC[C@@H]1CCC(=O)N1 [Compound 141]
6. COc1cc(-c2nccc(-c3cccc(-c4ccc(CN(C)C5CCN(C(C)=O)CC5)c(OC)n4)c3Cl)c2Cl)ccc1CNC1CCN(C(C)=O)CC1

3.53
0.7
0.6
1.13
0.826
3.12

For each of the items listed, what is its IC50?
1. COc1nc(-c2cccc(-c3nccc(-c4ccc(CN5CCC(O)CC5)c(OC)n4)c3Cl)c2Cl)ccc1CN1CCC(O)CC1 [Example 759]
2. COc1cc(-c2nccc(-c3cccc(-c4ccc(CNC[C@@H]5CCC(=O)N5)c(OC)n4)c3Cl)c2Cl)cc(C)c1CN(C)C[C@H](C)O [Compound 118]

0.63
1.6

# get_value(readout='IC50', item= COc1nc(-c2cccc(-c3ccnc(-c4ccc(CNC5CCN(C(C)=O)CC5)c(OC)n4)c3Cl)c2Cl)ccc1CNC1CCN(C(C)=O)CC1 [Compound 627] ) 1.96

All values here come from patent US20240246964A1.
